Attribution: ChEMBL document CHEMBL1201862

# AC50 listing for each entry below
Target or system: Cytochrome P450 1A2 (Homo sapiens, UniProt P05177);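 note: PubChem cytochrome P450 panel assay, CYP1A2 panel member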
Sequence (P05177 whole entry): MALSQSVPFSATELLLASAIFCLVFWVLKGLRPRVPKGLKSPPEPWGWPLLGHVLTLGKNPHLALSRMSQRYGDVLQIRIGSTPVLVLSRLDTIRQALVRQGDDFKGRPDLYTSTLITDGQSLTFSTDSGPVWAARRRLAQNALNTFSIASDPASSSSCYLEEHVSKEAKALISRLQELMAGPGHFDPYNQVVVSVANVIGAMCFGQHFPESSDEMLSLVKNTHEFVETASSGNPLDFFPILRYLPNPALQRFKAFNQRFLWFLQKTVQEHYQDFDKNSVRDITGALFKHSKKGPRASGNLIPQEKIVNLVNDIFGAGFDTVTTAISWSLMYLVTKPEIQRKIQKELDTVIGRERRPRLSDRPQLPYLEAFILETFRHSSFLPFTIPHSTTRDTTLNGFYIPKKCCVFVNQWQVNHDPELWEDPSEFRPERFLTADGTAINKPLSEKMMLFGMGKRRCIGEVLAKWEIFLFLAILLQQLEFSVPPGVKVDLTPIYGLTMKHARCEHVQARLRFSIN

# Compound, AC50
measured = [
    ("COc1ccccc1C(OC(=O)c1cccs1)C(=O)NCC1CCCO1 (stereo not given)", "14.1 µM (inconclusive)"),
    ("COC(=O)c1cc(/C=C/c2ccccc2)on1", "2 µM (inconclusive)"),
    ("O=S(=O)(c1cccc2nsnc12)N1CCCC1", "14.1 µM (inconclusive)"),
    ("Cc1cnc(CNc2cc(-c3ccoc3)ncn2)cn1", "25.1 µM (inconclusive)"),
    ("N#CCCn1c(=O)cnc2cnc(N3CCNCC3)nc21", "12.6 µM (inconclusive)"),
    ("CCS(=O)(=O)N1CCN(c2c(Cl)cccc2[N+](=O)[O-])CC1", "15.8 µM (inconclusive)"),
    ("COc1ccc(C(=O)N2CCC[C@@]3(CCN(Cc4ccccc4)C3)C2)cc1", "12.6 µM (inconclusive)"),
    ("CCN(CCCNC(=O)C1CCN(S(=O)(=O)CC)CC1)c1cccc(C)c1", "31.6 µM (inconclusive)"),
    ("O=C(O)[C@@H]1CCCN1Cc1cc2ccccc2c2ccccc12", "6.31 µM (inconclusive)"),
    ("COC(=O)[C@@H]1[C@@H]2C[C@H]3c4[nH]c5cc(OC)ccc5c4CCN3C[C@@H]2C[C@H](OC(=O)c2cc(OC)c(OC)c(OC)c2)[C@H]1OC", "15.8 µM (inconclusive)"),
]
